Where these numbers come from: patent US20250382332A1

Test system: Botrytis cinerea (B05.10)
MEASUREMENT_NOTES: Resazurin antifungal assay of 180 alpha-factor peptide variants towards Botrytis (Example 2)
Format: cell-based
MEASUREMENT_CONTEXT: % inhibition of fungal growth, Botrytis conidia, peptide 100 μM, resazurin
Peptide text beside a SMILES is read from it.

{"COMPOUND": "CC[C@H](C)[C@H](NC(=O)CNC(=O)[C@H](CCCNC(=N)N)NC(=O)[C@@H](N)CCCCN)C(=O)N[C@@H](CC(N)=O)C(=O)N[C@@H](CC(C)C)C(=O)N[C@@H](CCCCN)C(=O)N1CCC[C@H]1C(=O)NCC(=O)N[C@@H](CCC(N)=O)C(=O)N1CCC[C@H]1C(=O)N[C@@H](CCSC)C(=O)N[C@@H](Cc1ccc(O)cc1)C(=O)O [compound 104] (H-KRGINLKPGQPMY-OH; N-terminus and C-terminus assumed)", "VALUE_RELATION_SIGN": "=", "Inhibition at 100 μM / %": 99.59}
{"COMPOUND": "CSCC[C@H](NC(=O)[C@@H]1CCCN1C(=O)[C@H](CCC(N)=O)NC(=O)CNC(=O)[C@@H]1CCCN1C(=O)[C@H](CCSC)NC(=O)[C@H](CC(C)C)NC(=O)[C@H](CCCCN)NC(=O)[C@H](CC(C)C)NC(=O)[C@@H](NC(=O)[C@H](CCCNC(=N)N)NC(=O)[C@@H](N)Cc1c[nH]c2ccccc12)C(C)C)C(=O)N[C@@H](Cc1ccc(O)cc1)C(=O)O [compound 149] (H-WRVLKLMPGQPMY-OH; N-terminus and C-terminus assumed)", "VALUE_RELATION_SIGN": "<", "Inhibition at 100 μM / %": 90}
{"COMPOUND": "CC[C@H](C)[C@H](NC(=O)[C@H](CC(C)C)NC(=O)[C@H](CCC(N)=O)NC(=O)CNC(=O)[C@H](Cc1c[nH]c2ccccc12)NC(=O)CNC(=O)[C@@H](N)CCCCN)C(=O)N1CCC[C@H]1C(=O)NCC(=O)N[C@@H](CCC(=O)O)C(=O)N1CCC[C@H]1C(=O)N[C@@H](CCSC)C(=O)N[C@@H](Cc1ccc(O)cc1)C(=O)O [compound 133] (H-KGWGQLIPGEPMY-OH; N-terminus and C-terminus assumed)", "VALUE_RELATION_SIGN": "<", "Inhibition at 100 μM / %": 90}
{"COMPOUND": "CSCC[C@H](NC(=O)[C@@H]1CCCN1C(=O)[C@H](CCC(N)=O)NC(=O)CNC(=O)[C@@H]1CCCN1C(=O)[C@H](CCCCN)NC(=O)[C@H](Cc1ccccc1)NC(=O)[C@@H](NC(=O)[C@H](CC(C)C)NC(=O)[C@H](CC(C)C)NC(=O)[C@H](Cc1c[nH]cn1)NC(=O)[C@@H](N)CCCCN)[C@@H](C)O)C(=O)N[C@@H](Cc1ccc(O)cc1)C(=O)O [compound 95] (H-KHLLTFKPGQPMY-OH; N-terminus and C-terminus assumed)", "VALUE_RELATION_SIGN": "=", "Inhibition at 100 μM / %": 99.99}
{"COMPOUND": "CC[C@H](C)[C@H](NC(=O)[C@H](CCCNC(=N)N)NC(=O)[C@H](CC(C)C)NC(=O)[C@H](Cc1c[nH]c2ccccc12)NC(=O)[C@H](CCC(N)=O)NC(=O)[C@@H](N)Cc1c[nH]c2ccccc12)C(=O)N[C@@H](CCCCN)C(=O)N[C@@H](CO)C(=O)NCC(=O)N[C@@H](CCC(N)=O)C(=O)NCC(=O)N[C@@H](CCSC)C(=O)N[C@@H](Cc1ccc(O)cc1)C(=O)O [compound 73] (H-WQWLRIKSGQGMY-OH; N-terminus and C-terminus assumed)", "VALUE_RELATION_SIGN": "=", "Inhibition at 100 μM / %": 100}
{"COMPOUND": "CC[C@H](C)[C@H](NC(=O)[C@H](Cc1c[nH]c2ccccc12)NC(=O)[C@H](Cc1c[nH]cn1)NC(=O)[C@@H](N)CCCCN)C(=O)N[C@@H](CCCCN)C(=O)N[C@@H](CC(C)C)C(=O)N[C@@H](CCCCN)C(=O)N[C@@H](CC(N)=O)C(=O)NCC(=O)N[C@@H](CCC(N)=O)C(=O)N1CCC[C@H]1C(=O)N[C@@H](CCSC)C(=O)N[C@@H](Cc1ccc(O)cc1)C(=O)O [compound 81] (H-KHWIKLKNGQPMY-OH; N-terminus and C-terminus assumed)", "VALUE_RELATION_SIGN": "=", "Inhibition at 100 μM / %": 100}
{"COMPOUND": "CC[C@H](C)[C@H](NC(=O)[C@H](Cc1c[nH]c2ccccc12)NC(=O)[C@H](Cc1c[nH]cn1)NC(=O)[C@@H](N)Cc1c[nH]c2ccccc12)C(=O)N[C@@H](CCC(N)=O)C(=O)N[C@@H](Cc1ccccc1)C(=O)N[C@@H](CCCCN)C(=O)N1CCC[C@H]1C(=O)NCC(=O)N[C@@H](CCC(N)=O)C(=O)N[C@@H](CO)C(=O)N[C@@H](CCSC)C(=O)N[C@@H](Cc1ccc(O)cc1)C(=O)O [compound 26] (H-WHWIQFKPGQSMY-OH; N-terminus and C-terminus assumed)", "VALUE_RELATION_SIGN": "=", "Inhibition at 100 μM / %": 100}
{"COMPOUND": "CSCC[C@H](NC(=O)[C@@H]1CCCN1C(=O)[C@H](CO)NC(=O)CNC(=O)[C@H](CC(N)=O)NC(=O)[C@H](CCCCN)NC(=O)[C@H](CC(C)C)NC(=O)[C@H](CCC(N)=O)NC(=O)[C@@H](NC(=O)[C@H](CC(=O)O)NC(=O)[C@H](Cc1c[nH]cn1)NC(=O)[C@@H](N)CCCCN)C(C)C)C(=O)N[C@@H](Cc1ccc(O)cc1)C(=O)O [compound 156] (H-KHDVQLKNGSPMY-OH; N-terminus and C-terminus assumed)", "VALUE_RELATION_SIGN": "<", "Inhibition at 100 μM / %": 90}
{"COMPOUND": "CSCC[C@H](NC(=O)[C@@H]1CCCN1C(=O)[C@H](CCC(=O)O)NC(=O)CNC(=O)[C@@H]1CCCN1C(=O)[C@H](CCCCN)NC(=O)[C@H](Cc1ccccc1)NC(=O)[C@H](CCCCN)NC(=O)[C@H](CC(C)C)NC(=O)[C@H](Cc1ccccc1)NC(=O)[C@H](Cc1c[nH]cn1)NC(=O)[C@@H](N)Cc1c[nH]c2ccccc12)C(=O)N[C@@H](Cc1ccc(O)cc1)C(=O)O [compound 85] (H-WHFLKFKPGEPMY-OH; N-terminus and C-terminus assumed)", "VALUE_RELATION_SIGN": "=", "Inhibition at 100 μM / %": 100}
